From: patent US11999727B2

# Tested on: HAP1 MTAP-deleted cell line
# method: SDMA in-cell western assay, HAP1 MTAP-deleted
# Format: cell-based
# experimental.conditions: Homo sapiens, HAP1, SDMA in-cell western, HAP1 MTAP-deleted; read-out: HAP1 MTAP deleted IC50
reported.endpoint: IC50

Completed entries (count: 3):
{"compound": "COc1ncc(NC(=O)C(=O)N2C[C@@H](C)CC[C@@H]2c2ccc3c(c2)CNC3=O)cc1C(N)=O (single isomer, unassigned)", "IC50": "> 1000 nM"}
{"compound": "C[C@@H]1CC[C@@H](c2ccc(O)c(F)c2)N(C(=O)C(=O)Nc2cncc(C(N)=O)c2)C1 (single isomer, unassigned)", "IC50": "> 1000 nM"}
{"compound": "CCc1cc(NC(=O)C(=O)N2C[C@H](C)CC[C@H]2c2ccc3sc(C)nc3c2)cnc1N (single isomer, unassigned)", "IC50": "> 1000 nM"}

Entry C[C@@H]1CC[C@@H](c2cc(Cl)cc(Cl)c2)N(C(=O)C(=O)Nc2cncc(C(N)=O)c2)C1 (racemic) [Compound 206] : IC50 on HAP1 MTAP-deleted cell line = 100 to 1000 nM

Entry Cc1cc([C@H]2CC[C@H](C)CN2C(=O)C(=O)Nc2cncc(C(N)=O)c2)cc(C)c1O (single isomer, unassigned) : IC50 on HAP1 MTAP-deleted cell line = > 1000 nM

Entry NC(=O)c1cncc(NC(=O)C(=O)N2CCC3(CCOCC3)CC2)c1 : IC50 on HAP1 MTAP-deleted cell line = > 1000 nM
